Molecular target: T1, recombinant human isovaleryl-CoA dehydrogenase, CoA-persulfide-free (human, UniProt P26440 33-426)
T1 sequence: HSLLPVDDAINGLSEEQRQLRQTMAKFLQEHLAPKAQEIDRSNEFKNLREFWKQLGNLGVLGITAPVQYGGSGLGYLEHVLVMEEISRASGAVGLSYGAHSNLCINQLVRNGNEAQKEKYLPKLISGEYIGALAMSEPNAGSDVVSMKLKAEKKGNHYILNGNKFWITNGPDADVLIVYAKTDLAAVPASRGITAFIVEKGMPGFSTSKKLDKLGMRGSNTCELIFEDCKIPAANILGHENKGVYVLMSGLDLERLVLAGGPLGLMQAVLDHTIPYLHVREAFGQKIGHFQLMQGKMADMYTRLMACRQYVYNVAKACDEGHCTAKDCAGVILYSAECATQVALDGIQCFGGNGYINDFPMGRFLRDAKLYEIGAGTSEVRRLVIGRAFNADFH
Test: competitive inhibition of enzyme activity
assay readout: pKi
One number for each entry, as −log10 of the molar value.

-- ask // returns reported pKi for input RYATLPNIMKAK [ETF docking peptide, ETF βArg191-βLys202]
-- reply 2.82
